Each item that follows carries a reported pEC50.
Biological target: THR beta (Homo sapiens)
Construct: expressed in transfected cells; host or cells: HEK293T (ATCC CRL-3216)
Sequence (P10828 1-461): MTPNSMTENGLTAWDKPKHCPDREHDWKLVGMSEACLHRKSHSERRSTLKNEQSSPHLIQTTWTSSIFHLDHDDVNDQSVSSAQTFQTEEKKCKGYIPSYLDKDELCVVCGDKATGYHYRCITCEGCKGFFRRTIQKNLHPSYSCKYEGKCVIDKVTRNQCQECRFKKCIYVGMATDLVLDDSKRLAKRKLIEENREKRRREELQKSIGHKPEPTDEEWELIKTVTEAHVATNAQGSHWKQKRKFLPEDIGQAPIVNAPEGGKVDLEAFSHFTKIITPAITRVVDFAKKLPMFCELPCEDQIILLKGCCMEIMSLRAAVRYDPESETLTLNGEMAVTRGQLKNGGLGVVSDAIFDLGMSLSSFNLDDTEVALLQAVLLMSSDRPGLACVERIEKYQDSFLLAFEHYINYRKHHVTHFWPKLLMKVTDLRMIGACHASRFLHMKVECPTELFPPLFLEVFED
Sequence (P19793 1-462 partner): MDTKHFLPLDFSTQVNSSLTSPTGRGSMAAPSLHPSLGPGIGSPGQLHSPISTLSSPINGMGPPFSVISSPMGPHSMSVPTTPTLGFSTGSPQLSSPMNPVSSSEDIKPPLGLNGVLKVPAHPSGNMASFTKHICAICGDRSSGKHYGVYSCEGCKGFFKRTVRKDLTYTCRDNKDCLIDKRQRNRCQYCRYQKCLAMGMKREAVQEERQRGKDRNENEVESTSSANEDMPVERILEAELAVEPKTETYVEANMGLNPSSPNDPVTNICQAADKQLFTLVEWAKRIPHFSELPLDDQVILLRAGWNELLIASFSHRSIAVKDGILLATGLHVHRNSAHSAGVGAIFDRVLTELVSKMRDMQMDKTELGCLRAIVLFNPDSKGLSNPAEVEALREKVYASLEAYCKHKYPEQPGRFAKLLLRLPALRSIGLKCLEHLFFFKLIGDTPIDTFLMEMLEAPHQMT
Experiment: HEK293T THR beta/RXR luciferase reporter assay (Assay 2)
Assay type: cell-based
Settings: THR-beta, HEK293T reporter assay; read-out: Activity category Assay 2 (EC50, THR-beta agonist)
pEC50: −log10 of the molar value.

Look over these answered cases.
Cc1cc(-n2nc(N)c(=O)[nH]c2=O)cc(C)c1Cc1ccc2c(c1)C1(CC1)C(=O)N2 ... > 7.30
Nc1nn(-c2cc(Cl)c(Oc3cc(C4(c5ccccc5)CC4)c(=O)[nH]n3)c(Cl)c2)c(=O)[nH]c1=O ... 6.60 to 7.30
CC(C)c1c[nH]c2ccc(Oc3c(Cl)cc(-n4nc(N)c(=O)[nH]c4=O)cc3Cl)cc12 ... > 7.30
Nc1nn(-c2cc(Cl)c(Oc3n[nH]c(=O)cc3-c3cc4ccccc4cn3)c(Cl)c2)c(=O)[nH]c1=O ... 6.00 to 6.60
CC(C)C1(C)C(=O)Nc2ccc(Oc3c(Cl)cc(-n4nc(N)c(=O)[nH]c4=O)cc3Cl)cc21 (stereo not shown) ... 6.60 to 7.30
Nc1nn(-c2cc(Cl)c(Oc3cc(Cc4ccccc4)c(=O)[nH]n3)c(Cl)c2)c(=O)[nH]c1=O ... 6.60 to 7.30

Challenge: // lookup pEC50 for CC1(C)C(=O)Nc2ccc(Oc3c(Cl)cc(-n4nc(N)c(=O)[nH]c4=O)cc3Cl)cc21
Response given: > 7.30
